target: human PD-L1 on cell surface (human, UniProt Q9NZQ7 19-290); test: cell-based or functional assay; note: unit not given here
Sequence (Q9NZQ7 19-290): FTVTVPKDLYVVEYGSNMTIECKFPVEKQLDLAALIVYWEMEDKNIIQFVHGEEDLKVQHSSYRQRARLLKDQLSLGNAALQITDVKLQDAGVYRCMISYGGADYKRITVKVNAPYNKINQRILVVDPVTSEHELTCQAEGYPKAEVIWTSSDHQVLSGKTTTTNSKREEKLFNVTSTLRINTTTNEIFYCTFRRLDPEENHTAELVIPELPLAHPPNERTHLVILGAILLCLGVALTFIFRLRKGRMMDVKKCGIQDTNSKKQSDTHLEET
MEASURED_PARAMETER: Top (best-fit value) of IL-2 release, mixed lymphocyte reaction

(Q) Give the reported Top (best-fit value) of IL-2 release, mixed lymphocyte reaction for this binder. AH01950 (antibody, human IgG1, V domains shown, also called mPD-L1Ab-CBM clone AH01950) VH: QVQLQESGPGLVKPSQTLSLTCTVSGYSITSGYTWHWIRQHPGKGLEWIGYIHYSGSTKYNPSLKSRVTISRDTSKNQFSLKLSSVTAADTAVYYCARNSLFASWGQGTLVTVSS VL: DIVLTQSPDSLAVSLGERATINCRASESVDTYGDSFMHWFQQKPGQPPKLLIYRASNLESGVPDRFSGSGSGTDFTLTISSLQAEDVAVYYCQQSNEAPYTFGGGTKLEIK
(A) 2090

(Q) Give the reported Top (best-fit value) of IL-2 release, mixed lymphocyte reaction for this binder. AH01963 (antibody, human IgG1, V domains shown, also called mPD-L1Ab-CBM clone AH01963) VH: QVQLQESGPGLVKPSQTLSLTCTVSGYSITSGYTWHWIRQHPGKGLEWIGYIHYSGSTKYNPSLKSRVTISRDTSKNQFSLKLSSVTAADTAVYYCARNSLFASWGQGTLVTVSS VL: DIVLTQSPDSLAVSLGERATINCRASESVDTYGDSFMHWYQQKPGQPPKLLIYRASNLESGVPDRFSGSGSGTDFTLTISSVQAEDVAVYYCQQSNEAPYTFGGGTKLEIK
(A) 2350

(Q) Give the reported Top (best-fit value) of IL-2 release, mixed lymphocyte reaction for this binder. AH02029 (antibody, human IgG1, V domains shown, also called mPD-L1Ab-5BM clone AH02029) VH: QVQLQESGPGLVKPSQTLSLTCTVTGYSITSGYTWHWIRQHPGKGLEWIGYIHYSGSTKYNPSLKSRVSISRDTSKNQFSLKLSSVTAADTAVYYCARNSLFASWGQGTLVTVSS VL: DIVLTQSPDSLAVSLGERATINCRASESVDTYGDSFMHWYQQKPGQPPKLLIYRASNLESGVPDRFSGSGSGTDFTLTISSLQAEDVAVYYCQQSNEAPYTFGGGTKLEIK
(A) 2370
